# Assay conditions: in n-butanol, 303.15 K
Metric name: solubility (mole fraction)

Entry under review: `Nc1n[nH]c(=S)s1` . Reported solubility (mole fraction)?
0.00372

====

# Assay conditions: in sec-butanol, 323.15 K
Metric name: solubility (mole fraction)
Answer with a number only.

Recorded solubility (mole fraction) of `Nc1n[nH]c(=S)s1` , please.
0.00768

====

# Assay conditions: in acetone, 303.15 K
Metric name: solubility (mole fraction)
Please reply with the number alone, leaving off any unit.

What value of measured solubility (mole fraction) is listed for `Nc1n[nH]c(=S)s1` ?
0.0129

====

# Assay conditions: in n-butyl acetate, 303.15 K
Metric name: solubility (mole fraction)
Just the number, please, no unit attached.

Bench note: what solubility (mole fraction) did `Nc1n[nH]c(=S)s1` show?
0.00221

====

# Assay conditions: in n-butyl acetate, 318.15 K
Metric name: solubility (mole fraction)

Any idea what its solubility (mole fraction) is? The molecule is `Nc1n[nH]c(=S)s1`
0.00283

====

# Assay conditions: in n-butanol, 288.15 K
Metric name: solubility (mole fraction)
Simply state the number, no unit and no words.

// returns reported solubility (mole fraction) for input `Nc1n[nH]c(=S)s1`
0.00243

====

# Assay conditions: in n-butyl acetate, 288.15 K
Metric name: solubility (mole fraction)

# lookup: solubility (mole fraction) of `Nc1n[nH]c(=S)s1`
0.00172

====

# Assay conditions: in isobutanol, 313.15 K
Metric name: solubility (mole fraction)

# get_value(readout='solubility (mole fraction)', item= `Nc1n[nH]c(=S)s1` )
0.00333

====

# Assay conditions: in cyclohexanone, 283.15 K
Metric name: solubility (mole fraction)
// print number alone

Name the recorded solubility (mole fraction) for `Nc1n[nH]c(=S)s1` .
0.0325

====

# Assay conditions: in isopropanol, 308.15 K
Metric name: solubility (mole fraction)
The answer should be a number; do not append a unit.

Quick one: solubility (mole fraction) for `Nc1n[nH]c(=S)s1` ?
0.00447

====

# Assay conditions: in methyl acetate, 293.15 K
Metric name: solubility (mole fraction)

Quick one: solubility (mole fraction) for `Nc1n[nH]c(=S)s1` ?
0.0026

====

# Assay conditions: in ethyl acetate, 303.15 K
Metric name: solubility (mole fraction)
// no unit string in output, number only

Name the reported solubility (mole fraction) value associated with the compound `Nc1n[nH]c(=S)s1`
0.0028
